The reported measurements were obtained from ChEMBL document CHEMBL5247662.

- Tested on: HCT-116
- Protocol Details: Antiproliferative activity against human HCT-116 cells assessed as inhibition of cell growth measured after 48 hrs by CCK-8 assay
- Type: functional, cell-based
- Test Settings: HCT-116, 48 h
pIC50: −log10 of the molar value.
Observable: pIC50

Field: example entries. Status: answers known.
{"Chem Smiles": "COc1cc([C@@H]2Oc3cc(/C=C/c4ccc(NC(C)=O)cc4)ccc3O[C@H]2CO)cc(OC)c1O", "Study System": "HCT-116", "Observable": "pIC50", "Observed": "< 4.00"}
{"Chem Smiles": "COc1cc([C@@H]2Oc3cc(/C=C/c4cc(O)cc(O)c4)ccc3O[C@H]2CO[C@@H]2O[C@H](CO)[C@H](O)[C@H](O)[C@H]2O)cc(OC)c1O", "Study System": "HCT-116", "Observable": "pIC50", "Observed": "< 3.70"}
{"Chem Smiles": "OC[C@@H]1Oc2ccc(/C=C/c3cc(O)cc(O)c3)cc2O[C@H]1c1ccc(O)cc1", "Study System": "HCT-116", "Observable": "pIC50", "Observed": "< 4.30"}
{"Chem Smiles": "OC[C@@H]1Oc2ccc(/C=C/c3cc(O)cc(O)c3)cc2O[C@H]1c1cc(Cl)c(O)c(Cl)c1", "Study System": "HCT-116", "Observable": "pIC50", "Observed": "< 4.30"}
{"Chem Smiles": "CCOC(=O)/C=C/c1ccc2c(c1)O[C@@H](c1cc(OC)c(O)c(OC)c1)[C@H](CO)O2", "Study System": "HCT-116", "Observable": "pIC50", "Observed": "< 4.30"}

// next item, pIC50 requested
-- ask Which pIC50 value is on record for COc1cc([C@@H]2Oc3cc(C=O)ccc3O[C@H]2CO)cc(OC)c1O ?
-- reply < 4.00
